Every entry's value here was drawn from patent US8912329B2.

Target: EthR-VP16 (Mycobacterium bovis, UniProt Q7TVI1)
Sequence (Q7TVI1 whole entry, looked up): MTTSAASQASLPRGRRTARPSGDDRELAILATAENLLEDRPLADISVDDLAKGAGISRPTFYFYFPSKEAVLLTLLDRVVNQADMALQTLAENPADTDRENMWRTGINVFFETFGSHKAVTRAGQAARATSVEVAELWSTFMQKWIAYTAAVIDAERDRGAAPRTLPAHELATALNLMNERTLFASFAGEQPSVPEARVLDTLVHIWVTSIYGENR
Experiment: cell-based
Set-up: species or system M. bovis
Settings: 48 h, read-out: % EthR activity (w/o = 100%); ± std. dev. of the mean (n = 3)
READOUT NAME: remaining activity at 60 µM

Guide cases for remaining activity at 60 µM, answers given:
CCCCCC(=O)N1CCOC(c2ccccc2)C1 (stereo not shown): 17.8%
CCCC(=O)N1CCC(c2ccccc2)C1 (stereo not shown): 10.8%
CCCCC(=O)N1CCOC(c2ccccc2)C1 (stereo not shown): 26.9%
O=C(CCCc1ccccc1)N1CC(Cc2ccccc2)C1: 17.5%
CCCCC(=O)N1CCN(Cc2ccccc2)CC1: 11.7%
CCCCCC(=O)N1CCN(Cc2ccccc2)CC1: 10%

# next compound below
// query Provide measured remaining activity at 60 µM value, entry: CCCCC(=O)N1CCC(c2ccccc2)C1 (stereo not shown)
// result 8.89%
